biological target: ActRIIA and ActRIIB (on TGFB/SMAD SBE Reporter HEK293 cells) (human); experiment: cell-based or functional assay
Sequence (chain, as listed by the source, chain 1 of 2): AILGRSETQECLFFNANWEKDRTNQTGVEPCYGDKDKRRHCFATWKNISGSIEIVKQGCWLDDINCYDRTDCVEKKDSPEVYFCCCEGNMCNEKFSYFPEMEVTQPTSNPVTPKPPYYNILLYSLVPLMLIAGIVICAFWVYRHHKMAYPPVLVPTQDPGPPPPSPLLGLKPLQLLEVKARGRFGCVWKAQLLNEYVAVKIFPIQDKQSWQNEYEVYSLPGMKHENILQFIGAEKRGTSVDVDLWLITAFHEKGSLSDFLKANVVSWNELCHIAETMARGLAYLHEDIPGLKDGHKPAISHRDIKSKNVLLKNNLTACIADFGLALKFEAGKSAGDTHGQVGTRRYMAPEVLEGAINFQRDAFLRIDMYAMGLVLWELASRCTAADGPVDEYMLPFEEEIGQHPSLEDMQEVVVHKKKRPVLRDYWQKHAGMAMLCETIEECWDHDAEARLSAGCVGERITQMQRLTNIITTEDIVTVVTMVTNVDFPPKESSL
Sequence (chain, as listed by the source, chain 2 of 2): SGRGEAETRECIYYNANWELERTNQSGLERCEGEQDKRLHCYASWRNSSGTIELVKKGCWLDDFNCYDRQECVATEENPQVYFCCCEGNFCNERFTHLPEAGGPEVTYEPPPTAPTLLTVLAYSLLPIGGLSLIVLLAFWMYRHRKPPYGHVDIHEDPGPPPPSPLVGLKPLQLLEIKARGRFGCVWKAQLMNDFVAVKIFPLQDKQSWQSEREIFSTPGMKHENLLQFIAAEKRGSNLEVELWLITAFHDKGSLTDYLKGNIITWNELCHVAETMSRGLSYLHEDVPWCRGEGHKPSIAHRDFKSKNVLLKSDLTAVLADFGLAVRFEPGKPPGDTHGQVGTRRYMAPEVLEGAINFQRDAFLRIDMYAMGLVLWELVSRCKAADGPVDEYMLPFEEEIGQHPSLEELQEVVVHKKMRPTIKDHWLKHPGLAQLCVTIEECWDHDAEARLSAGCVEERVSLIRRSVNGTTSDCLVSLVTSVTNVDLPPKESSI
Strictly below 2 nM in IC90, Activin SMAD RGA: Condition met. Otherwise: Condition not met.

Study these solved cases before continuing.
>>> class_label("Antibody Ochsamaulsalat (antibody, V domains shown, full-length IgG) VH: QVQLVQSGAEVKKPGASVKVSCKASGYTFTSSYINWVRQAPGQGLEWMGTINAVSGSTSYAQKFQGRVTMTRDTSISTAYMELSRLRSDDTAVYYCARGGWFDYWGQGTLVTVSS VL: QSALTQPASVSGSPGQSITISCTGTSSDVGSRNYVNWYQQHPGKAPKLMIYGVSKRESGVSNRFSGSKSGNTASLTISGLQAEDEADYYCGTFAGGDYYGVFGGGTKLTVL")
"Condition not met"
>>> class_label("Antibody Riaba (antibody, V domains shown, full-length IgG) VH: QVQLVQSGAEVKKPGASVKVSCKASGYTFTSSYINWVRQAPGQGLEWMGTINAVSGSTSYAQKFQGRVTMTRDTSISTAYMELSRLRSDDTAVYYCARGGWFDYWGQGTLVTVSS VL: QSALTQPASVSGSPGQSITISCTGTSSDVGSYNYVNWYQQHPGKAPKLMIYGVSKRDSGVSNRFSGSKSGNTASLTISGLQAEDEADYYCGTFAGGKYYGVFGGGTKLTVL")
"Condition not met"
>>> class_label("Bimagrumab (antibody, V domains shown) VH: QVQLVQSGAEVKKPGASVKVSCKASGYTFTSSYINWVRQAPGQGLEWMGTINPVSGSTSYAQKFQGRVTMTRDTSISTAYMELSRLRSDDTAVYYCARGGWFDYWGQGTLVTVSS VL: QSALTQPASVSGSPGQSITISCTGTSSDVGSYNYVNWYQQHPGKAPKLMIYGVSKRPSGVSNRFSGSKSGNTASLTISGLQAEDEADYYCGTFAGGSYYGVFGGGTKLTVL")
"Condition not met"
>>> class_label("Antibody Hasaschlegel (antibody, V domains shown, full-length IgG) VH: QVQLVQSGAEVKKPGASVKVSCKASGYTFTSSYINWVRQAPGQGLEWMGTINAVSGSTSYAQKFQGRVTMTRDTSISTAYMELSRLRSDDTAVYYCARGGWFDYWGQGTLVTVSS VL: QSALTQPASVSGSPGQSITISCTGTSSDVGSYDYVNWYQQHPGKAPKLMIHGVSKRESGVSNRFSGSKSGNTASLTISGLQAEDEADYYCGTFAGGSYYGVFGGGTKLTVL")
"Condition not met"

Turning now to a further binder:
For this binder, is IC90, Activin SMAD RGA lower than 2 nM? Antibody Biiramooscht (antibody, V domains shown, full-length IgG) VH: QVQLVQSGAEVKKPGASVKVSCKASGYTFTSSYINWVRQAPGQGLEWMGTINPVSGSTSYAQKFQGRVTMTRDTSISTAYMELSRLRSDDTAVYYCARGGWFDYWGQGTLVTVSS VL: QSALTQPASVSGSPGQSITISCTGTSSDVGSYNYVNWYQQHPGKAPKLMIYGVSKRESGVSNRFSGSKSGNTASLTISGLQAEDEADYYCGTFAGGAYYGVFGGGTKLTVL
Condition met
